Target System: PI3Kalpha (Homo sapiens)
Sequence (P42336 whole entry): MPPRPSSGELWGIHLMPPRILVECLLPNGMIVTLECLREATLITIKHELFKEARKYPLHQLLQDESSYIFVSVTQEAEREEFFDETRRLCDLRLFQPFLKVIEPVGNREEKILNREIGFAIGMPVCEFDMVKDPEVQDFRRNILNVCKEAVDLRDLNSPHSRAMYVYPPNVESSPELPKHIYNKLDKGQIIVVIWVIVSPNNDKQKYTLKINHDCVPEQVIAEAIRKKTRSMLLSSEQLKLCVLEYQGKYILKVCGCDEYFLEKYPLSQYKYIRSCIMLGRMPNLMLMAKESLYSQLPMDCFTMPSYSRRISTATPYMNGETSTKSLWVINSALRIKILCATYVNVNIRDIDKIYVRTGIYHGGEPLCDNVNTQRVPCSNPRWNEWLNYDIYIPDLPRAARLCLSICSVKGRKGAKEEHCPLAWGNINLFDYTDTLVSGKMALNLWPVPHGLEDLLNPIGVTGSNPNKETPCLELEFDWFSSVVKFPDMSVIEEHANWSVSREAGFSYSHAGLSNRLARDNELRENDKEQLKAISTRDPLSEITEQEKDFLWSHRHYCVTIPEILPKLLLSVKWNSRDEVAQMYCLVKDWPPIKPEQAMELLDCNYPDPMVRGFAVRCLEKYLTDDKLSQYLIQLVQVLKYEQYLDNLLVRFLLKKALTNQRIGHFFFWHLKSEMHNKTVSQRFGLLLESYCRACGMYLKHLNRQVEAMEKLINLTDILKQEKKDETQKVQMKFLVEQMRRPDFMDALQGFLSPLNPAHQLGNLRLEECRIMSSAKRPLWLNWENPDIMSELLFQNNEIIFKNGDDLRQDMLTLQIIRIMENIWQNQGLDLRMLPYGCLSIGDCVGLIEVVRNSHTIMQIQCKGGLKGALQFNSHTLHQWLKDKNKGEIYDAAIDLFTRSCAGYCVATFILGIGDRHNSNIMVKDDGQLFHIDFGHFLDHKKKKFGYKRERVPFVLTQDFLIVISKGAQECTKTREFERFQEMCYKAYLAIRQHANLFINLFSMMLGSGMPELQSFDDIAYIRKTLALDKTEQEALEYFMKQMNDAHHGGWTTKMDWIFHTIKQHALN
Sequence (P27986 whole entry partner): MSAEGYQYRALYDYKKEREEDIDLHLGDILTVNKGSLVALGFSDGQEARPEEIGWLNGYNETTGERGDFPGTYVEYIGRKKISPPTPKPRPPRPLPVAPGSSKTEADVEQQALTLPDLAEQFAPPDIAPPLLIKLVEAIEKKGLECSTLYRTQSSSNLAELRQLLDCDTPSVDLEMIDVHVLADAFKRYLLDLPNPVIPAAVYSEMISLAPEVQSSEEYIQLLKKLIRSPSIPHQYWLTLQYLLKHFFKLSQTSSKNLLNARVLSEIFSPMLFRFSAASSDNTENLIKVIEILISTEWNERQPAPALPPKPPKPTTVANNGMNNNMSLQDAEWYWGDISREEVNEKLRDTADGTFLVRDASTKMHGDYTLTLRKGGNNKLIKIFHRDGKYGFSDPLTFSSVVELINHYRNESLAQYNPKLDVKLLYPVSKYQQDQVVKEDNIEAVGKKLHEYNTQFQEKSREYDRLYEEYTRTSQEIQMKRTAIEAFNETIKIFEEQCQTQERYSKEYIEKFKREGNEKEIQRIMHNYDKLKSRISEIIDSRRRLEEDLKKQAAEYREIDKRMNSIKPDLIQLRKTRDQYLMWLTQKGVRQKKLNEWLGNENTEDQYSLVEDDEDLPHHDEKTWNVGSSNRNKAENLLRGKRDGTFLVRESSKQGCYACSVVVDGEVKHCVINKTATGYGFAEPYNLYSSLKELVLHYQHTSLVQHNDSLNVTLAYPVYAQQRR
pIC50: −log10 of the molar value.
Assay Endpoint: pIC50

Which measured pIC50 belongs to CC(=O)Nc1cc(-c2nc(-c3ccccc3Cl)c(NC(C)=O)s2)ccn1 , tested on PI3Kalpha (Homo sapiens)? < 6.00
